# Subject Of Test: Retinaldehyde dehydrogenase 3 (Homo sapiens)
# Assay Summary: qHTS for Inhibitors of the Aldehyde Dehydrogenase Family (ALDH1A3) Primary screen (AID 2061315);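 further: plate controls were DMSO vehicle for no effect and reference inhibitor for full effect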
# Test Conditions: ALDH inhibition qHTS; series mostly up to 56 µM
Records with an inconclusive call do not appear. Active and inactive are the calls of the source. The call rests on the fitted dose curve; in most records, active means well fitted inhibition curve with a large enough effect; inconclusive means small, poorly fitted or top-dose-only effect; inactive means no such curve, though single readings can be large or run the other way.
Assay Readout: activity change, negative = inhibition

C[C@]1(OC(=O)/C=C\c2ccc(O)cc2)C[C@@H](O)[C@]2(O)C=CO[C@@H](O[C@@H]3O[C@H](CO)[C@@H](O)[C@H](O)[C@H]3O)C12 (stereo partly drawn): inactive
C=C(C)C1CCC2(C(=O)O[C@@H]3O[C@H](CO[C@@H]4O[C@H](CO)[C@@H](O)[C@H](O)[C@H]4O)[C@@H](O)[C@H](O[C@@H]4O[C@@H](C)[C@H](O)[C@@H](O)[C@H]4O)[C@H]3O)CCC3(C(=O)O)C(CCC4C5(C)CCC(O)C(C)(C)C5CCC43C)C12 (stereo partly drawn): inactive
C/C1=C\C[C@H](O[C@@H]2O[C@H](CO)[C@@H](O)[C@H](O)[C@H]2O)/C(C)=C/[C@H]2OC(=O)[C@H](C)[C@@H]2CC1: inactive

---

# Assay Summary: BET inhibitor-based combinations targeting novel dependencies in MECOM-rearranged (r) AML: OCI-AML3 cell line (AID 2202232); further: nearly all actives have a fitted effect of over 35% in size
# Test Conditions: CellTiter-Glo luminescence, 48 h; OCI-AML3 viability; series mostly up to 46 µM
Records with an inconclusive call do not appear. The source made the active and inactive calls. The call rests on the fitted dose curve; in most records, active means well fitted inhibition curve with a large enough effect; inconclusive means small, poorly fitted or top-dose-only effect; inactive means no such curve, though single readings can be large or run the other way.
Bench note: report the call from 1 = active, -1 = inactive

IN: Which outcome was entered for the compound `COc1ccc2cc3[n+](cc2c1OC)CCc1cc2c(cc1-3)OCO2` in this test?
OUT: 1

IN: Which outcome was entered for the compound `O=C(/C=C/c1ccc(O)cc1)c1ccc(O)cc1O` in this test?
OUT: 1

IN: Which outcome was entered for the compound `NCc1ccc(OCCCc2sc(-c3ccc4c(c3)/C(=N/Nc3nc5ccccc5s3)CCC4)nc2C(=O)O)cc1` in this test?
OUT: -1

IN: Which outcome was entered for the compound `CS(=O)(=O)OCCCCOS(C)(=O)=O` in this test?
OUT: -1

IN: Which outcome was entered for the compound `Cn1cc(-c2ccncc2)c(-c2ccc(OCc3ccc4ccccc4n3)cc2)n1` in this test?
OUT: 1

IN: Which outcome was entered for the compound `Cc1cccc(N(C)C(=S)Oc2ccc3ccccc3c2)c1` in this test?
OUT: -1

IN: Which outcome was entered for the compound CC(=O)c1cnc2ccc(-c3cc(Cl)c(O)c(Cl)c3)nc2c1NC1CCC(CN(C)C)CC1 (stereo unspecified) in this test?
OUT: 1

IN: Which outcome was entered for the compound `CN(Cc1cc(Br)cc(Br)c1N)C1CCCCC1` in this test?
OUT: -1

IN: Which outcome was entered for the compound `NS(=O)(=O)c1cc2c(cc1Cl)NC=NS2(=O)=O` in this test?
OUT: -1

IN: Which outcome was entered for the compound `CCCCCCCCc1ccc(CCC(N)(CO)CO)cc1` in this test?
OUT: 1

IN: Which outcome was entered for the compound `O=C1Nc2ccc(I)cc2/C1=C/c1cc(Br)c(O)c(Br)c1` in this test?
OUT: -1

---

# Assay Summary: BET inhibitor-based combinations targeting novel dependencies in MECOM-rearranged (r) AML: SET-2 cell line (AID 2202231);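 further: plate controls were DMSO treated cells for no effect and wells without cells for full effect; nearly all actives have a fitted effect of over 35% in size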
# Test Conditions: SET-2 AML cells viability, CellTiter-Glo luminescence, 48 h; stronger effect = lower value, concentration not given here
# Procedure: Ecotropic viral insertion site 1 (EVI1) is located on chromosome 3q26.2 as part of the MECOM (MDS and EVI1 complex) locus. […] A collection of 2480 mechanistically annotated dugs (MIPE v5.0) was used to screen four 3q26.2 rearranged AML cell lines and three non-3q26.2 rearranged AML cell lines. […] Cell viability was determined by luminescence based, Cell Titer Glo assay (Promega). […] Luminescence readings were taken using a Viewlux (PerkinElmer) with a 2 s exposure time per plate. […]
Records with an inconclusive call do not appear.
Assay Readout: viability (%)
Field format: number, assumed %, no unit text.

Cc1cc2c(cc1CC(=O)c1sccc1S(=O)(=O)Nc1onc(C)c1Cl)OCO2: 68.3
CC(=O)OCC(=O)[C@@]1(O)CC[C@H]2[C@@H]3CCC4=CC(=O)C=C[C@]4(C)[C@H]3[C@@H](O)C[C@@]21C: 114
Clc1cccc(-n2nnnc2NCc2ccccc2Oc2ccccn2)c1Cl: 103

Record `NNC(=O)c1ccncc1` . Reported viability: 110

Record `Nc1c2c(nc3ccccc13)CCCC2` . Reported viability: 102
